Test system: HIPK4
Conditions: concentration: 1 μM,replicates: in singlicate; n = 1;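 also: KINOMEscan kinase panel screen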
measured property: %Inh (%)
Provide only the numeric value, understood in %.

Simply: C[C@@H](Oc1cc(-n2cnc3cc(-c4ccncc4)ccc32)sc1C(N)=O)c1ccccc1Cl [GSK479719] , HIPK4, %Inh = 24

Simply: Cc1cccc(-c2nc(Nc3ccncc3)c3sccc3n2)n1 [GW869641] , HIPK4, %Inh = 13

Simply: `Cn1cc(-c2cccc3c(N)c(C(N)=O)nnc23)cn1` , HIPK4, %Inh = 18

Simply: COc1cccc(CNC(=O)NC2CCN(c3ccnc(Nc4cc(OC)c(OC)c(OC)c4)n3)C2)c1 (stereo not drawn) [GSK1379765] , HIPK4, %Inh = 0

Simply: `O=C(Nc1ccc(Oc2ccc3nc(NC(=O)C4CC4)cn3n2)c(F)c1)c1cccn(-c2ccccc2)c1=O` , HIPK4, %Inh = 20

New cases:
Simply: Cl.Cl.NC[C@H](CC1CCCCC1)NC(=O)c1ccc(-c2ccnc3[nH]ccc23)s1 [GSK1581428] , HIPK4, %Inh = 94.2

Simply: COc1cc2nccc(Nc3ccc(Oc4ccccc4)cc3)c2cc1OC.Cl [GI261656] , HIPK4, %Inh = 0

Simply: Cc1n[nH]c2cc(Nc3ccnc(Nc4cccc(CN5CCOCC5)c4)n3)ccc12 [GW682569] , HIPK4, %Inh = 3

Simply: Cc1nnc(-c2ccc3occ(-c4ccc(S(C)=O)cc4)c3n2)o1 (stereo not drawn) , HIPK4, %Inh = 0

---

Test system: AKT1
Settings: concentration: 1 μM,replicates: in singlicate; n = 1
measured property: %Inh (%)
Provide only the numeric value, understood in %.

Here's what some known entries look like.
Simply: `O=C(Nc1ccccc1)c1cccc(Oc2ccc3nccn3n2)c1` , AKT1, %Inh = 11

Simply: `Cc1ccc(C(=O)Nc2ccc(Oc3ccc4nc(NC(=O)C5CC5)cn4c3)c(F)c2)c(=O)n1-c1ccccc1` , AKT1, %Inh = 0

Simply: `CC(=O)Nc1ccc(-c2cc3ncnc(SCC(=O)O)c3s2)cc1` , AKT1, %Inh = 0

Simply: `Cn1ccc2ncnc(Oc3ccc(NC(=O)Nc4cc(C(C)(C)C)on4)c(Cl)c3)c21` , AKT1, %Inh = 18

Simply: `Cn1ccc2ncnc(Oc3ccc(NC(=O)Nc4cccc(C(F)(F)F)c4)c(F)c3)c21` , AKT1, %Inh = 23

New cases:
Simply: Cc1ccn2nc(-c3ccc(F)cc3)c(-c3ccncc3)c2c1.Cl [GW457859] , AKT1, %Inh = 0

---

Here the recorded %Inh is given for each entry.
Tested on: CSNK2A1
Conditions: concentration: 1 μM,replicates: in singlicate; n = 1
Please answer using a numeric value trailed by its unit.

Data point: `COc1cc2c(Nc3ccc(NC(=O)c4ccccc4)cc3)ncnc2cc1OCCCN1CCOCC1` ; %Inh = 9%

Data point: `Nc1nccc(-c2ccc3c(N)n[nH]c3c2)n1` ; %Inh = 41%

Data point: COc1ccc(Nc2nccc(N3CCC(NC(=O)c4cccc(C#N)c4)C3)n2)cc1 (stereo not drawn) ; %Inh = 0%

New cases:
Data point: `O=C(Nc1ccccc1)c1cccc(Oc2ccc3nccn3n2)c1` ; %Inh = 0%

Data point: N#Cc1cccc(C(=O)NC2CCN(c3ccnc(Nc4ccc(F)cc4)n3)C2)c1 (stereo not drawn) ; %Inh = 0%

Data point: `CC(C)S(=O)(=O)N1CCN(Cc2ccc3c(c2)nc(NC(=O)c2ccsc2)n3C[C@H](O)c2ccccc2)CC1` ; %Inh = 6%

Data point: `CC(=O)Nc1nc2cnc(Nc3cc(NC(=O)c4cccc(CC(C)(C)C#N)c4)ccc3C)nc2s1` ; %Inh = 21%

Data point: `C[C@@H]1CNc2c(sc3ccc4nc(-c5ccncc5)ccc4c23)C(=O)N1` ; %Inh = 38%

Data point: `Cl.Nc1n[nH]c2cc(-c3ccccn3)ccc12` ; %Inh = 0%

The measurements presented in this section are drawn from paper PMC5540273.
